- System: SF-295
- TEST SUMMARY: NCI tumour cell line growth inhibition, 48 h
Calls of active or inactive are those of the source. Rule as the data show it: active = GI50 up to about 1.1 µM and inactive = higher.
In this exercise, the only acceptable responses are YES = active, NO = inactive

Below, 3 compounds whose answers are already recorded.
N#Cc1c(-c2ccc(Cl)cc2)c(C#N)c(=O)n(NS(=O)(=O)c2ccccc2)c1O    NO
O=C(O)c1nc2cc(Cl)ccc2[nH]c1=O    NO
CC(=O)OCC1OC(n2c3c(c(-c4ccc(Cl)cc4)c(C#N)c2=S)CCCC3)C(OC(C)=O)C(OC(C)=O)C1OC(C)=O (configuration not stated)    NO

Query block: # outcome recorded in this test, key = Cc1ccc(C(=O)C(C)N)cc1 (configuration not stated)
Result block: NO

Query block: Answer briefly: the call reported for `CC1=NC(=O)CNN1C1=NNC2(C(=O)N1)c1ccccc1-c1ccccc12` in this assay.
Result block: NO

====

- Tested on: HT-29
- TEST SUMMARY: NCI tumour cell line growth inhibition, 48 h
Activity calls are given as the source filed them. No stated cut-off is given here; in the data, active = GI50 up to about 1.1 µM and inactive = higher.
Consider the following compounds; for each one, report its GI50.

The following compounds have reported results that may help.
COc1ccc(P2(=S)OC(C)(C)C(C)(C)O2)cc1    > 100 µM (inactive)
COc1cc(C2(C)SCCCS2)cc(OC)c1OC    > 100 µM (inactive)
COc1cc(=O)oc(/C=C/C=O)c1C    19.9 µM (inactive)
CO/C(=N\N=Cc1ccccc1)c1ccncc1    > 100 µM (inactive)

The reported GI50 value, HT-29, for CCCCCCC1NN(C(C)=O)C(CCCCCC)NN1C(C)=O (stereo not given) reads > 100 µM (inactive)

====

- System: MDA-MB-435
- TEST SUMMARY: NCI tumour cell line growth inhibition, 48 h
Active and inactive are the calls of the source. Cut-off read from the data, not from the text of the source: active = GI50 up to about 1.1 µM and inactive = higher.
Exercise: state measured GI50 for each of the molecules provided.

O=c1c2c(oc3ccccc13)-c1ccccc1OC2    > 100 µM (inactive)
Cc1c2cc[n+](C)cc2c(C)c2c1[nH]c1ccccc12    9.02 µM (inactive)
CCCNc1ncnc2[nH]ncc12    > 100 µM (inactive)
CC(=O)OCC1OC(n2c3c(c(-c4ccc(Cl)cc4)c(C#N)c2=S)CCCC3)C(OC(C)=O)C(OC(C)=O)C1OC(C)=O (configuration not stated)    67.3 µM (inactive)
COC(=O)C1=C(C(=O)OC)SC(=C2S[C@@H]3[C@@H]4C[C@H]([C@@H]3S2)[C@H]2C(=O)OC(=O)[C@@H]42)S1    > 100 µM (inactive)

Provide GI50 for all items below, preserving their order.
1. CC(=O)c1ccc2c(c1)CC1(C2)Cc2cc3c(cc2C1=O)CCC3 (configuration not stated)
2. COc1cc(OC)c(OC)cc1/C=N/N=C(\N)NO

Result block:
1. 17 µM (inactive)
2. 68.2 µM (inactive)

====

- Test system: HOP-92
- TEST SUMMARY: NCI tumour cell line growth inhibition, 48 h
Calls of active or inactive are those of the source. No stated cut-off is given here; in the data, active = GI50 up to about 1.1 µM and inactive = higher.
Write down one outcome, taken from True (active), False (inactive)

The examples below pair each entry with its known result.
N#C/C(=C\c1ccc2ccccc2c1)c1ccccc1    False
COC(=O)C1CC(C(=O)OC)c2nc3cc(C)ccc3nc21 (centres undefined)    False

Kindly review the next compound as well.
Query block: Can you look up the reported call for CCN1CC2=C(OC(N)=C(C#N)C2c2ccc(Cl)cc2)/C(=C/c2ccc(Cl)cc2)C1 (centres undefined) for me?
Result block: True

====

- Test system: SK-OV-3
- TEST SUMMARY: NCI tumour cell line growth inhibition, 48 h
Active and inactive are the calls of the source. No stated cut-off is given here; in the data, active = GI50 up to about 1.1 µM and inactive = higher.
ASSAY METRIC: GI50

Example entries and their recorded answers appear below.
c1ccc(C2N3CCCCC3[C@@H]3c4[nH]c5ccccc5c4CCN23)cc1 (some centres not stated)    > 100 µM (inactive)
COc1nc2c(N3CCCC3)nc(N3CCNCC3)nc2nc1NCc1ccccc1    2.05 µM (inactive)
COC(=O)C1=C(C)NC(C)=C([N+](=O)[O-])C1c1cccc(NO)c1 (configuration not stated)    7.38 µM (inactive)

Go through the list and state GI50 for each entry.
1. COc1cc2c(cc1OCc1ccccc1)NC(=O)[C@@H]1CCCN1C2=O
2. CC(=O)OCC1=CC2CCC3C(C)(CCC[C@]3(C)COC(C)=O)C23CC[C@H]1C3 (some centres not stated)
3. Cc1c(/N=N/c2ccccc2)c(C)n(C2OC(CO)C(O)C(O)C2O)c(=S)c1C#N (configuration not stated)
4. Cc1c2c(cc3c1[nH]c1ccccc13)C(c1ccc(Cl)cc1)=NCC2

Result block:
["> 100 µM (inactive)", "64.7 µM (inactive)", "34 µM (inactive)", "2.67 µM (inactive)"]

Your task in this section: give GI50 for each listed record.
1. CC(C)(C)c1cc(C(=O)Nc2cc(Br)c(Br)cc2S(N)(=O)=O)cc(C(C)(C)C)c1O
2. Cc1ccc2[nH]c3c4c5ccccc5nc-4c[nH]c3c2c1

Result block:
["16.4 µM (inactive)", "12.6 µM (inactive)"]

====

- Test system: MOLT-4
- TEST SUMMARY: NCI tumour cell line growth inhibition, 48 h
Active and inactive are the calls of the source. No stated cut-off is given here; in the data, active = GI50 up to about 1.1 µM and inactive = higher.
// one of 1 = active, 0 = inactive, no free text

// known answers, use as guide
CC(C)N/C(=N\C#N)NS(=O)(=O)c1cnccc1Nc1ccc(Cl)cc1    0
COc1cc2c(cc1OCc1ccccc1)NC(=O)[C@@H]1CCCN1C2=O    0
N#Cc1c(-c2ccc(Cl)cc2)c(C#N)c(=O)n(NS(=O)(=O)c2ccccc2)c1O    0
C[C@]12CC[C@H](O)C=C1CC[C@@H]1[C@@H]2CC[C@]2(C)C(=N/O)/C(=C/c3ccncc3)C[C@@H]12    0

Query block: // param item: `COc1ccc(P2(=S)OC(C)(C)C(C)(C)O2)cc1` ; yields the recorded call
Result block: 0

Query block: Hi, do you know how `C=COC(=O)N[C@H]1CCc2cc(OC)c(OC)c(OC)c2-c2ccc(SC)c(=O)cc21` came out in this test?
Result block: 1

Query block: Fill in: this test's call for `O=C1c2ccccc2C(=O)c2nc3ccc(Cl)cc3cc21` is ___
Result block: 0

====

- Test system: COLO 205
- TEST SUMMARY: NCI tumour cell line growth inhibition, 48 h
Calls of active or inactive are those of the source. Rule as the data show it: active = GI50 up to about 1.1 µM and inactive = higher.
Would you mind answering with one of these outcomes? t (active), f (inactive)

Below, 10 compounds whose answers are already recorded.
CC12ON(P(=O)(c3ccccc3)c3ccccc3)C(C)(c3ccccc31)c1ccccc12    f
N/N=C(\Cc1ccccc1)NN=C(N)N    f
O=C(NCCCNCCCCNCCCNC(=O)C(F)(F)F)C(F)(F)F    f
CCOP(=O)(OCC)/C(C#N)=C\c1cccc2ccccc12    f
COc1ccc(-n2c(C)nc3ccc(NC4OC(COC(C)=O)C(OC(C)=O)C(OC(C)=O)C4OC(C)=O)cc3c2=O)cc1 (centres undefined)    f
C/C(=N/OC(=O)c1cccc2c(=O)c3ccccc3[nH]c12)[C@H]1CC[C@H]2[C@@H]3CCC4=C/C(=N/OC(=O)c5cccc6c(=O)c7ccccc7[nH]c56)CC[C@]4(C)[C@H]3CC[C@]12C    f
FC(F)(F)c1ccc(/N=N/N2CCCC2)cc1    f
CC(C)N(C(=O)C12C3C4C1C1C2C3C41C(N)=O)C(C)C (centres undefined)    f
CN(C)/C=C/c1ccnc2c1C(=O)c1ccccc1C2=O    f
CC(C)CNc1nc2ncnc(N)c2[nH]1    f

Switching to the query record.
Query block: Record lookup: outcome of this test for `CCC(CC)n1c(C)nc2c1C(=O)c1ccccc1C2=O` ?
Result block: f

====

- System: NCI-H522
- TEST SUMMARY: NCI tumour cell line growth inhibition, 48 h
Active and inactive are the calls of the source. No stated cut-off is given here; in the data, active = GI50 up to about 1.1 µM and inactive = higher.
ASSAY METRIC: GI50

These solved cases illustrate the format of a correct answer.
Cn1c(=O)c2[nH]c(/N=N/N3CCN(CCO)CC3)nc2n(C)c1=O    > 100 µM (inactive)
CC(=O)OCC1=CC2CCC3C(C)(CCC[C@]3(C)COC(C)=O)C23CC[C@H]1C3 (some centres not stated)    18.8 µM (inactive)

Please report GI50 for every entry that follows.
1. N/C(=N\c1ccccc1Cl)c1ccccc1N
2. N[C@]1(C(=O)O)C[C@@H]2C(Br)=NO[C@@H]2C1
3. CCOC(=O)CC[C@H](NC(=O)[C@H](N)Cc1ccc(N(CCCl)CCCl)cc1)C(=O)OCC
4. CSC1(SC)N2Cc3ccccc3N=C2C1(c1ccccc1)c1ccccc1
5. COc1nc(C(Cl)(Cl)Cl)c(Cl)c(OC)c1Cl [PENCLOMEDINE]

Result block:
1. > 100 µM (inactive)
2. > 100 µM (inactive)
3. 4.53 µM (inactive)
4. 5.96 µM (inactive)
5. 33.1 µM (inactive)
